# measured on: Tyrosyl-tRNA synthetase, putative (Trypanosoma cruzi (strain CL Brener))
# assay method text: Trypanosoma cruzi tyrosyl tRNA synthetase (TcYRS) _High Tyrosine SOP
# Format: functional
# Set-up: scale not given: in the data most compounds retested in dose-response had high values
# run conditions: 30 µM
Documented Percent Effect across a set of compounds
reported metric: Percent Effect (%)

CCN(CCn1cccn1)Cc1nc(-c2cccs2)oc1C    4.21
CN(C(=O)c1ccccc1Cl)C1CCN(c2ccccn2)CC1    7.62
O=C(CO[C@@H]1CC[C@H]2[C@H]1OCCN2CC1CCOCC1)N1CCCC1    8.91
Cc1nc(CN2C(=O)CC[C@H]3[C@@H]2CCN3C(=O)c2ccsc2)cs1    5.41
O=C(c1cc(=O)[nH]c(=O)[nH]1)N1CCCCC1c1ccc(F)cc1 (configuration not stated)    5.26
COc1ccc(CS(=O)(=O)CC(=O)NCC2CC2)cc1F    6.38
Cc1ccc([C@@H]2CN(S(=O)(=O)c3cccs3)C[C@H]2N(C)C)cc1    3.23
Cc1noc(C)c1CNC(=O)N1CCC(C(O)c2ccccc2)CC1 (configuration not stated)    2.08
CCn1c(CN(C)C)nnc1C1CCN(Cc2ccccc2)CC1    7.53
CNC(=O)c1cnc(/C=C/c2cc(OC)cc(OC)c2)s1    1.98
COCc1noc(-c2ccc(N(C)Cc3cc(C)no3)nc2)n1    5.82
O=C(NCCCn1cccn1)N1CCCC1c1ccncc1 (configuration not stated)    0.546
COCCC(=O)N1CCC(c2noc3nc(C)cc(C(F)(F)F)c23)CC1    2.15
O=C(Nc1ccc(F)c(Br)c1)N1CCCC1    -34.6
CC(NC(=O)NCC1(O)CCC1)c1ccc(OCC2CC2)c(F)c1 (configuration not stated)    3.19
CN(C)C(=O)CNC(=O)c1ccc(Cl)cc1F    6.38
CN(C)c1ncccc1CNC(=O)N1CCCC1CN1CCCCC1 (configuration not stated)    7.77

All figures here come from ChEMBL document CHEMBL3988442.
